- Tested on: DU-145
- test-name: Cytotoxicity against human DU145 cells
- Assay type: functional
- test-settings: read-out: pTGI (converted)
value-type: TGI (µM)
Write it as a number; the unit µM goes unstated.

For COc1cc(/C=C/c2cc(O)c3ccn(C)c3c2)cc2c1O[C@]1(C)CC[C@@H](O)C(C)(C)[C@H]1C2 the compound record lists TGI as 91.2

For COc1cc(/C=C/c2cc(OC)c3c(CC=C(C)C)c[nH]c3c2)cc2c1O[C@]1(C)CC[C@@H](O)C(C)(C)[C@H]1C2 the compound record lists TGI as 15.1

For COc1cc(/C=C/c2cc(OC)c3c(C/C=C(\C)CCC=C(C)C)c[nH]c3c2)cc2c1O[C@]1(C)CC[C@@H](O)C(C)(C)[C@H]1C2 the compound record lists TGI as 19.1

For COc1cc(/C=C/c2cc(OC)c3cc[nH]c3c2)cc2c1O[C@]1(C)CC[C@@H](O)C(C)(C)[C@H]1C2 the compound record lists TGI as 4.37

###

Answer each item with its documented GI50.
- System: MDA-MB-231
- test-name: Cytotoxicity against human MDA-MB-231 cells
- Assay type: functional
Write it as a number; the unit nM goes unstated.

Short answer on MDA-MB-231 for COc1cc(/C=C/c2cc(OC)c3ccn(C)c3c2)cc2c1O[C@]1(C)CC[C@@H](O)C(C)(C)[C@H]1C2 , GI50: 1480

Short answer on MDA-MB-231 for COc1cc(/C=C/c2cc(O)c3c(c2)C[C@@H]2C(C)(C)[C@H](O)CC[C@@]2(C)O3)cc2[nH]cc(CC=C(C)C)c12 , GI50: 891

Short answer on MDA-MB-231 for CC1(C)[C@H](O)CC[C@@]2(C)Oc3c(O)cc(/C=C/c4cc(O)c5cc[nH]c5c4)cc3C[C@H]12 , GI50: 1700

Short answer on MDA-MB-231 for COc1cc(/C=C/c2cc(O)c3c(C/C=C(\C)CCC=C(C)C)c[nH]c3c2)cc2c1O[C@]1(C)CC[C@@H](O)C(C)(C)[C@H]1C2 , GI50: 1100

Short answer on MDA-MB-231 for COc1cc(/C=C/c2cc(OC)c3c(C/C=C(\C)CCC=C(C)C)c[nH]c3c2)cc2c1O[C@]1(C)CC[C@@H](O)C(C)(C)[C@H]1C2 , GI50: 1410

Short answer on MDA-MB-231 for COc1cc(/C=C/c2cc(OC)c3c(CC=C(C)C)c[nH]c3c2)cc2c1O[C@]1(C)CC[C@@H](O)C(C)(C)[C@H]1C2 , GI50: 269

Short answer on MDA-MB-231 for COc1cc(/C=C/c2cc(O)c3ccn(C)c3c2)cc2c1O[C@]1(C)CC[C@@H](O)C(C)(C)[C@H]1C2 , GI50: 1120

###

- Tested on: RXF 393
- test-name: Cytotoxicity against human RXF393 cells
- Assay type: functional
// thresholds for GI50 classes: band A: < 20 nM; band B: ≥ 20 nM and < 60 nM; band C: ≥ 60 nM

Categorize the following entry: CC1(C)[C@H](O)CC[C@@]2(C)Oc3c(O)cc(/C=C/c4cc(O)c5cc[nH]c5c4)cc3C[C@H]12
band A

Categorize the following entry: COc1cc(/C=C/c2cc(O)c3c(c2)C[C@@H]2C(C)(C)[C@H](O)CC[C@@]2(C)O3)cc2c1ccn2C
band A

Categorize the following entry: COc1cc(/C=C/c2cc(OC)c3cc[nH]c3c2)cc2c1O[C@]1(C)CC[C@@H](O)C(C)(C)[C@H]1C2
band B

Categorize the following entry: COc1cc(/C=C/c2cc(OC)c3c(CC=C(C)C)c[nH]c3c2)cc2c1O[C@]1(C)CC[C@@H](O)C(C)(C)[C@H]1C2
band B

Categorize the following entry: COc1cc(/C=C/c2cc(O)c3cc(CC=C(C)C)[nH]c3c2)cc2c1O[C@]1(C)CC[C@@H](O)C(C)(C)[C@H]1C2
band C

Categorize the following entry: COc1cc(/C=C/c2cc(O)c3c(c2)C[C@@H]2C(C)(C)[C@H](O)CC[C@@]2(C)O3)cc2[nH]cc(CC=C(C)C)c12
band A

Categorize the following entry: COc1cc(/C=C/c2cc(O)c3cc[nH]c3c2)cc2c1O[C@]1(C)CC[C@@H](O)C(C)(C)[C@H]1C2
band C

Categorize the following entry: COc1cc(/C=C/c2cc(OC)c3c(C/C=C(\C)CCC=C(C)C)c[nH]c3c2)cc2c1O[C@]1(C)CC[C@@H](O)C(C)(C)[C@H]1C2
band B

Categorize the following entry: COc1cc(/C=C/c2cc(O)c3ccn(C)c3c2)cc2c1O[C@]1(C)CC[C@@H](O)C(C)(C)[C@H]1C2
band B

Categorize the following entry: COc1cc(/C=C/c2cc(O)c3c(CC=C(C)C)c[nH]c3c2)cc2c1O[C@]1(C)CC[C@@H](O)C(C)(C)[C@H]1C2
band B

Categorize the following entry: COc1cc(/C=C/c2cc(OC)c3ccn(C)c3c2)cc2c1O[C@]1(C)CC[C@@H](O)C(C)(C)[C@H]1C2
band B

Categorize the following entry: COc1cc(/C=C/c2cc(O)c3c(C/C=C(\C)CCC=C(C)C)c[nH]c3c2)cc2c1O[C@]1(C)CC[C@@H](O)C(C)(C)[C@H]1C2
band C
